- assayComment: Cytotoxicity against mouse RAW264.7 cells assessed as cell viability at 10 uM by MTS assay relative to control
observationType: viability at 10 µM

Example entries begin here.
1. O=C1/C(=C/c2ccccc2Br)CCc2ccc(O)cc21    > 90%
2. O=C1/C(=C/c2cccc(F)c2)CCc2ccc(O)cc21    > 90%
3. O=C1/C(=C/c2ccccn2)CCc2c(O)cccc21    > 90%
4. O=C1/C(=C/c2ccccc2Cl)CCc2c(O)cccc21    > 90%
5. O=C1/C(=C/c2ccc(O)cc2)CCc2cc(O)ccc21    < 90%
6. O=C1/C(=C/c2ccncc2)CCc2c(O)cccc21    > 90%
7. O=C1/C(=C/c2ccccc2F)CCc2cc(O)ccc21    > 90%
8. O=C1/C(=C/c2ccccc2O)CCc2cc(O)ccc21    > 90%

Endpoint output: viability at 10 µM of O=C1/C(=C/c2ccccc2OC(F)(F)F)CCc2c(O)cccc21 . Value?
< 90%

Endpoint output: viability at 10 µM of O=C1/C(=C/c2ccc(F)cc2)CCc2ccc(O)cc21 . Value?
> 90%

Endpoint output: viability at 10 µM of O=C1/C(=C/c2cccc(C(F)(F)F)c2)CCc2c(O)cccc21 . Value?
> 90%

Endpoint output: viability at 10 µM of O=C1/C(=C/c2ccc(C(F)(F)F)cc2)CCc2cc(O)ccc21 . Value?
> 90%

Endpoint output: viability at 10 µM of O=C1/C(=C/c2ccc(O)cc2)CCc2ccc(O)cc21 . Value?
< 90%

Endpoint output: viability at 10 µM of O=C1/C(=C/c2ccc(C(F)(F)F)cc2)CCc2c(O)cccc21 . Value?
< 90%

Endpoint output: viability at 10 µM of O=C1/C(=C/c2ccc(F)cc2)CCc2cc(O)ccc21 . Value?
> 90%

src = ChEMBL document CHEMBL5104162
